# Target Desc: UniProtKB P30542
# Sequence (P30542 whole entry): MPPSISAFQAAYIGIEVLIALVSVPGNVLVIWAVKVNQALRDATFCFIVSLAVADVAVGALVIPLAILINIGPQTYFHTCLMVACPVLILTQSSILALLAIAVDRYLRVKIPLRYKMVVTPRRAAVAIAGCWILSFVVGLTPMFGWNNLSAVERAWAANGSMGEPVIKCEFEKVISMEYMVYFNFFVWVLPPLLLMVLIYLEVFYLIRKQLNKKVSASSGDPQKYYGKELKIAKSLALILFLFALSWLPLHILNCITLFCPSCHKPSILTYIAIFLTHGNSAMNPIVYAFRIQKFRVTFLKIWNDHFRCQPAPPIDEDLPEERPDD
# Experiment Summary: Percent change in cAMP content of CHO (Chinese hamster ovary) cells expressing human Adenosine A1 receptor at 0.1 uM
# Type: functional, cell-based
Listed here: items and their measured Change.
Express the result in % but write the number alone.

In the examples that follow, each entry is paired with its recorded Change.
Smiles Repr: Nc1sc2c(c1C(=O)c1ccc(Br)c3ccccc13)CCN(Cc1ccccc1)C2
Change [%]: -5
--
Smiles Repr: Nc1sc2c(c1C(=O)c1ccc3ccccc3c1)CCCC2
Change [%]: -24
--
Smiles Repr: Nc1sc2c(c1C(=O)c1ccc(Cl)c3ccccc13)CCN(Cc1ccccc1)C2
Change [%]: -1

For COc1ccc(C(=O)c2c(N)sc(C)c2C)c2ccccc12 , what is its reported Change?
3

For Cc1sc(N)c(C(=O)c2ccc3ccccc3c2)c1C , what is its reported Change?
-4

For Nc1sc2c(c1C(=O)c1ccc3c(c1)Cc1ccccc1-3)CCCC2 , what is its reported Change?
6

For Cc1sc(N)c(C(=O)c2ccc(C)c3ccccc23)c1C , what is its reported Change?
-8

For COc1ccc(C(=O)c2c(N)sc3c2CCN(Cc2ccccc2)C3)c2ccccc12 , what is its reported Change?
11

For Nc1sc2c(c1C(=O)c1ccc(I)c3ccccc13)CCCC2 , what is its reported Change?
-4

For Nc1sc2c(c1C(=O)c1ccc(Cl)c3ccccc13)CCCC2 , what is its reported Change?
3
